# system-under-test: equine FcRn (large alpha subunit p51) in complex with equine beta-2-microglobulin (equine) (UniProt F6XZ61)
# protocol-summary: SPR (Biacore), pH 6
assay-metric: Kd (nM)
One number for each entry, in nM.

binder | Kd / nM
equine IgG7 D312G mutant (antibody, part only; not given: Variable domains, not shown: another chain or arm of the molecule) constant: ASTTAPKVFPLASHSAATSGSTVALGCLVSSYFPEPVTVSWNSGALTSGVHTFPSVLQSSGLYSLSSMVTVPASSLKSQTYICNVAHPASSTKVDKKIVIKECGGCPTCPECLSVGPSVFIFPPKPKDVLMISRTPTVTCVVVDVGHDFPDVQFNWYVDGVETHTATTEPKQEQNNSTYRVVSILAIQHKGWLSGKEFKCKVNNQALPAPVQKTISKPTGQPREPQVYVLAPHRDELSKNKVSVTCLVKDFYPTDIDIEWKSNGQPEPETKYSTTPAQLDSDGSYFLYSKLTVETNRWQQGTTFTCAVMHEALHNHYTEKSVSKSPGK | 38.4
equine IgG7 N434V mutant (antibody, part only; not given: Variable domains, not shown: another chain or arm of the molecule) constant: ASTTAPKVFPLASHSAATSGSTVALGCLVSSYFPEPVTVSWNSGALTSGVHTFPSVLQSSGLYSLSSMVTVPASSLKSQTYICNVAHPASSTKVDKKIVIKECGGCPTCPECLSVGPSVFIFPPKPKDVLMISRTPTVTCVVVDVGHDFPDVQFNWYVDGVETHTATTEPKQEQNNSTYRVVSILAIQHKDWLSGKEFKCKVNNQALPAPVQKTISKPTGQPREPQVYVLAPHRDELSKNKVSVTCLVKDFYPTDIDIEWKSNGQPEPETKYSTTPAQLDSDGSYFLYSKLTVETNRWQQGTTFTCAVMHEALHVHYTEKSVSKSPGK | 6700
equine IgG7 T286A mutant (antibody, part only; not given: variable domains, not shown: another chain or arm of the molecule) constant: ASTTAPKVFPLASHSAATSGSTVALGCLVSSYFPEPVTVSWNSGALTSGVHTFPSVLQSSGLYSLSSMVTVPASSLKSQTYICNVAHPASSTKVDKKIVIKECGGCPTCPECLSVGPSVFIFPPKPKDVLMISRTPTVTCVVVDVGHDFPDVQFNWYVDGVETHAATTEPKQEQNNSTYRVVSILAIQHKDWLSGKEFKCKVNNQALPAPVQKTISKPTGQPREPQVYVLAPHRDELSKNKVSVTCLVKDFYPTDIDIEWKSNGQPEPETKYSTTPAQLDSDGSYFLYSKLTVETNRWQQGTTFTCAVMHEALHNHYTEKSVSKSPGK | 110

Kindly review the next binder as well.
Q. Field request: Kd | item: equine IgG7 M428E mutant (antibody, part only; not given: variable domains, not shown: another chain or arm of the molecule) constant: ASTTAPKVFPLASHSAATSGSTVALGCLVSSYFPEPVTVSWNSGALTSGVHTFPSVLQSSGLYSLSSMVTVPASSLKSQTYICNVAHPASSTKVDKKIVIKECGGCPTCPECLSVGPSVFIFPPKPKDVLMISRTPTVTCVVVDVGHDFPDVQFNWYVDGVETHTATTEPKQEQNNSTYRVVSILAIQHKDWLSGKEFKCKVNNQALPAPVQKTISKPTGQPREPQVYVLAPHRDELSKNKVSVTCLVKDFYPTDIDIEWKSNGQPEPETKYSTTPAQLDSDGSYFLYSKLTVETNRWQQGTTFTCAVEHEALHNHYTEKSVSKSPGK
A. 39.8
